MEASUREMENT TARGET: recombinant human HGF (hepatocyte growth factor) (human, UniProt P14210 32-728)
Sequence (P14210 32-728 limits assumed): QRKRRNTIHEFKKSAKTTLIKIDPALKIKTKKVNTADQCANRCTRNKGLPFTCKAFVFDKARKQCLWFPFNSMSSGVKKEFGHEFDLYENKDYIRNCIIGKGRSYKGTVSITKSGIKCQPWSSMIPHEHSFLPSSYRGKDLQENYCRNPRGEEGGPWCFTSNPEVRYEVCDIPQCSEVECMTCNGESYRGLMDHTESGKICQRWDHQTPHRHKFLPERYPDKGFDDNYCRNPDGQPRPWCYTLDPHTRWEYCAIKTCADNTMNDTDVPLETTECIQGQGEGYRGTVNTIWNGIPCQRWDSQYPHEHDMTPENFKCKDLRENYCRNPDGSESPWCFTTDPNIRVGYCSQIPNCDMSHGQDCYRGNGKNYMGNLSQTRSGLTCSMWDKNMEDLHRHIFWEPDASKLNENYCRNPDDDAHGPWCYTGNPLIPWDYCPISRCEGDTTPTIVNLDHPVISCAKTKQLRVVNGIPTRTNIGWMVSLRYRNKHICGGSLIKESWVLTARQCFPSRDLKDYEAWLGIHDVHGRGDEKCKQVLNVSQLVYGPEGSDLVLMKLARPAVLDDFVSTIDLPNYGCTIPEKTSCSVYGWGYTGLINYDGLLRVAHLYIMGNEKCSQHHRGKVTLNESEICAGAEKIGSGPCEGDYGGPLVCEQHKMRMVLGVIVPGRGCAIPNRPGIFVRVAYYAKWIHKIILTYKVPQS
PROTOCOL DESCRIPTION: cell-based or functional assay
METRIC NAME: % inhibition of HGF stimulated c-Met phosphorylation in A549 cells (%)

BINDER: DARPin #37 (designed binder) MRGSHHHHHHGSDLGKKLLEAARAGQDDEVRILMANGADVNATDLTGFTPLHLAAYYGHLEIVEVLLKYGADVNADDRYGLTPLHLAANTGHLEIVEVLLKNGADVNASDSVGTTLLHLAAYIGHPEIVEVLLKYGADVNAQDKFGKTAFDISIDNGNEDLAEILQKLN
RESULT NUMBER: 95
--
BINDER: DARPin #60 (designed binder) MRGSHHHHHHGSDLGMKLLEAARAGQDDEVRILMANGADVNAHDTWGLTPLHLAAFHGHQEIVEVLLKHGADVNAQDFYGKTPLHLAALRGHLEIVEVLLKYGADVNAQDQFGKTAFDISIDNGNEDLAEILQKLN
RESULT NUMBER: 94
--
BINDER: DARPin #43 (designed binder) MRGSHHHHHHGSDLGKKLLEAARAGQDDEVRILMANGADVNAKYEDGLTPLHLAAFYGHLEIVEVLLKHGADVNATDAWGHTPLHLAAYYGHLEIVEVLLKYGADVNTHDKEGMTALHLAALTGHLEIVEVLLKNGADVNAQDKFGKTAFDISIDNGNEDLAEILQKLN
RESULT NUMBER: 101
